# System: human hepatocytes
# test_description: Metabolic stability assay, human hepatocyte incubations
# Assay type: in vitro ADME
# condition_details: 37° C., 0-60 min, half life
# Description: The in vitro metabolic stability of the compounds of the invention was determined for exemplified compounds using human hepatocyte incubations. Study compounds were incubated 0, 10, 20, 40 and 60 min at 37° C. Samples were collected at all time points and compounds were detected by LC-MS/MS analysis. The percent compound remaining is calculated by comparing the peak area of the parent compound at each time point to time zero. […]
Measured Human hepatocytes MetStab T1_2 min accompanies every entry in the list below.
observed_property: Human hepatocytes MetStab T1_2 min

>>> result("C[C@]12CCC3c4cccc(F)c4CCC3C1[C@H](CCC(=O)Nc1ccc(F)cn1)C/C2=N\\O (stereo partly shown)")
"52 min"
>>> result("C[C@]12CCC3c4cccc(F)c4CCC3C1[C@H](CCC(=O)Nc1cccnn1)C/C2=N\\O (stereo partly shown)")
"17 min"
>>> result("COc1ccc(NC(=O)CC[C@@H]2C/C(=N\\O)[C@@]3(C)CCC4c5cccc(F)c5CCC4C23)nn1 (stereo partly shown)")
"42 min"
>>> result("COc1ccnc(NC(=O)CC[C@@H]2C/C(=N\\O)[C@@]3(C)CCC4c5ccccc5CCC4C23)c1 (stereo partly shown)")
"31 min"
>>> result("CC(C)c1ccc(NC(=O)CC[C@@H]2C/C(=N\\O)[C@@]3(C)CCC4c5cccc(F)c5CCC4C23)nc1 (stereo partly shown)")
"29 min"
>>> result("Cc1cc(NC(=O)CC[C@@H]2C/C(=N\\O)[C@@]3(C)CCC4c5ccccc5CCC4C23)no1 (stereo partly shown)")
"26 min"
>>> result("C[C@]12CCC3c4ccccc4CCC3C1[C@H](CCC(=O)Nc1ccc(F)cn1)C/C2=N\\O (stereo partly shown)")
"28 min"
>>> result("C[C@]12CCC3c4cccc(F)c4CCC3C1[C@H](CCC(=O)Nc1ccc(N3CCOCC3)cn1)C/C2=N\\O (stereo partly shown)")
"40 min"
>>> result("Cc1cnc(NC(=O)CC[C@@H]2C/C(=N\\O)[C@@]3(C)CCC4c5ccccc5CCC4C23)o1 (stereo partly shown)")
"21 min"
>>> result("COc1ccc(NC(=O)CC[C@@H]2C/C(=N\\O)[C@@]3(C)CCC4c5cccc(F)c5CCC4C23)nc1 (stereo partly shown)")
"67 min"
>>> result("COc1ccnc(NC(=O)CC[C@@H]2C/C(=N\\O)[C@@]3(C)CCC4c5ccc(Cl)cc5CCC4C23)c1 (stereo partly shown)")
"334 min"
>>> result("COc1ccc(NC(=O)CC[C@@H]2C/C(=N\\O)[C@@]3(C)CCC4c5ccccc5CCC4C23)nc1 (stereo partly shown)")
"35 min"
>>> result("CC(C)c1ccc(NC(=O)CC[C@@H]2C/C(=N\\O)[C@@]3(C)CCC4c5ccc(F)cc5CCC4C23)nc1 (stereo partly shown)")
"78 min"
>>> result("Cc1cc(NC(=O)CC[C@@H]2C/C(=N\\O)[C@@]3(C)CCC4c5cccc(F)c5CCC4C23)no1 (stereo partly shown)")
"38 min"
>>> result("CC(C)c1ccc(NC(=O)CC[C@@H]2C/C(=N\\O)[C@@]3(C)CCC4c5ccccc5CCC4C23)nc1 (stereo partly shown)")
"46 min"
>>> result("C[C@]12CCC3c4ccccc4CCC3C1[C@H](CCC(=O)Nc1ccc(N3CCOCC3)cn1)C/C2=N\\O (stereo partly shown)")
"83 min"

###

# measured_target: recombinant human 17β-HSD1 (Homo sapiens, UniProt P14061)
# Construct: made in house; host or cells: Sd9 (Sf9) insect cells, baculovirus (Bac to Bac Expression System)
# test_description: Inhibition of recombinant human 17β-HSD1
# Type: biochemical
# condition_details: inhibitor 100 nM; 30 nM estrone, 1 mM NADPH, 30 min RT
Rule: inhibition at 0.1 µM of 60% or more gives YES; anything lower gives NO.

>>> label_class("COc1ccc(NC(=O)CC[C@@H]2C/C(=N\\O)[C@@]3(C)CCC4c5ccc(F)cc5CCC4C23)nn1 (stereo partly shown) [Compound 30]")
"NO"
>>> label_class("COc1ccc(NC(=O)CC[C@@H]2C/C(=N\\O)[C@@]3(C)CCC4c5ccc(Cl)cc5CCC4C23)nc1 (stereo partly shown) [Compound 66]")
"YES"
>>> label_class("C[C@]12CCC3c4ccccc4CCC3C1[C@H](CCC(=O)Nc1ccccn1)C/C2=N\\O (stereo partly shown) [Compound 104]")
"YES"
>>> label_class("C[C@]12CCC3c4ccc(Cl)cc4CCC3C1[C@H](CCC(=O)NC1=NCCS1)C/C2=N\\O (stereo partly shown) [Compound 46]")
"NO"
>>> label_class("C[C@]12CCC3c4cccc(F)c4CCC3C1[C@H](CCC(=O)Nc1ccc(C#N)cn1)C/C2=N\\O (stereo partly shown) [Compound 148]")
"YES"
>>> label_class("C[C@]12CCC3c4cccc(F)c4CCC3C1[C@H](CCC(=O)Nc1nncs1)C/C2=N\\O (stereo partly shown) [Compound 18]")
"YES"
>>> label_class("C[C@]12CCC3c4ccc(F)cc4CCC3C1[C@H](CCC(=O)Nc1ncccc1F)C/C2=N\\O (stereo partly shown) [Compound 150a]")
"YES"

###

Measured inhibition at 1 µM accompanies every entry in the list below.
# measured_target: recombinant human 17β-HSD2 (Homo sapiens, UniProt P37059)
# Construct: made in house; host or cells: Sd9 (Sf9) insect cells, baculovirus (Bac to Bac Expression System)
# Sequence (P37059 1-387): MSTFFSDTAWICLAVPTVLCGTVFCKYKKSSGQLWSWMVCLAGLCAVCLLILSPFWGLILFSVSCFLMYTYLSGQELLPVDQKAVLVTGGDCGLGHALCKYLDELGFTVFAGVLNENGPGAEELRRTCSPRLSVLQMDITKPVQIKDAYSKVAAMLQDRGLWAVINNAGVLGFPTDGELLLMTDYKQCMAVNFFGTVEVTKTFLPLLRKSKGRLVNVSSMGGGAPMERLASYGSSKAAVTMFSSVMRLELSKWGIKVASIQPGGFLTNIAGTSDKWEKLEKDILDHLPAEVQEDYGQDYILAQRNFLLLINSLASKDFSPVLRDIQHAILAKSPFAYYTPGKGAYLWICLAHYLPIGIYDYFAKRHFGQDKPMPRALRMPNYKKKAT
# test_description: Inhibition of recombinant human 17β-HSD2
# Assay type: biochemical
# condition_details: inhibitor 1 μM; 50 nM estradiol, 1 mM NADH, 30 min RT
observed_property: inhibition at 1 µM (%)

>>> numeric_readout("Cc1ccc(NC(=O)CC[C@@H]2C/C(=N\\O)[C@@]3(C)CCC4c5cccc(F)c5CCC4C23)nn1 (stereo partly shown)")
9
>>> numeric_readout("COc1ccc(NC(=O)CC[C@@H]2C/C(=N\\O)[C@@]3(C)CCC4c5ccc(F)cc5CCC4C23)nc1 (stereo partly shown)")
7
>>> numeric_readout("Cc1ccnc(NC(=O)CC[C@@H]2C/C(=N\\O)[C@@]3(C)CCC4c5ccccc5CCC4C23)c1 (stereo partly shown)")
-2
>>> numeric_readout("C[C@]12CCC3c4cccc(F)c4CCC3C1[C@H](CCC(=O)Nc1cc3c([nH]c1=O)CCCC3)C/C2=N\\O (stereo partly shown)")
9
>>> numeric_readout("C[C@]12CCC3c4cccc(F)c4CCC3C1[C@H](CCC(=O)Nc1ncc(F)cc1F)C/C2=N\\O (stereo partly shown)")
8
>>> numeric_readout("C[C@]12CCC3c4ccc(F)cc4CCC3C1[C@H](CCC(=O)Nc1cccnn1)C/C2=N\\O (stereo partly shown)")
9
>>> numeric_readout("Cc1ccnc(NC(=O)CC[C@@H]2C/C(=N\\O)[C@@]3(C)CCC4c5ccc(Cl)cc5CCC4C23)c1 (stereo partly shown)")
4

###

Measured inhibition at 0.1 µM accompanies every entry in the list below.
# measured_target: recombinant human 17β-HSD1 (Homo sapiens)
# Construct: made in house; host or cells: Sd9 (Sf9) insect cells, baculovirus (Bac to Bac Expression System)
# Sequence (P14061 1-328): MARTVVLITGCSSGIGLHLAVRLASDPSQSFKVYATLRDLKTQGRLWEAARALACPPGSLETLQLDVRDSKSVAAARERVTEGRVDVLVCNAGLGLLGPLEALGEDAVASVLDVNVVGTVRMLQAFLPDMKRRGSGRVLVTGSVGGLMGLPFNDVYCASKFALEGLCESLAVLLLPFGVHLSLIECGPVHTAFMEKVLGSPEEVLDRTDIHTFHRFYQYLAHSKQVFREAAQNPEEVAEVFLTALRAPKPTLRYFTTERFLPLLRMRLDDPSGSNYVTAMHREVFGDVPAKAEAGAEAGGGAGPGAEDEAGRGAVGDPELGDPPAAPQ
# test_description: Inhibition of recombinant human 17β-HSD1
# Type: biochemical
# condition_details: inhibitor 100 nM; 30 nM estrone, 1 mM NADPH, 30 min RT
# Method: 17β-HSD1 production and isolation: Recombinant baculovirus was generated by the “Bac to Bac Expression System” (Invitrogen). Recombinant bacmid was transfected to Sd9 insect cells using “Cellfectin Reagent” (Invitrogen). […] [formula] Percent inhibition was calculated flowingly: % inhibition=100−% conversion
observed_property: inhibition at 0.1 µM (%)

>>> numeric_readout("CNC(=O)CC[C@@H]1C/C(=N\\O)[C@@]2(C)CCC3c4cccc(F)c4CCC3C12 (stereo partly drawn) [Compound 118]")
43
>>> numeric_readout("C[C@]12CCC3c4cccc(F)c4CCC3C1[C@H](CCC(=O)Nc1cnccn1)C/C2=N\\O (stereo partly drawn) [Compound 126]")
53
>>> numeric_readout("Cc1cc(NC(=O)CC[C@@H]2C/C(=N\\O)[C@@]3(C)CCC4c5ccc(F)cc5CCC4C23)no1 (stereo partly drawn) [Compound 134]")
75
>>> numeric_readout("COc1ccc(NC(=O)CC[C@@H]2C/C(=N\\O)[C@@]3(C)CCC4c5cccc(F)c5CCC4C23)nn1 (stereo partly drawn) [Compound 4]")
87
>>> numeric_readout("C[C@]12CCC3c4cccc(F)c4CCC3C1[C@H](CCC(=O)NC1COC1)C/C2=N\\O (stereo partly drawn) [Compound 10]")
30
>>> numeric_readout("C[C@]12CCC3c4cccc(F)c4CCC3C1[C@H](CCC(=O)Nc1ccc(F)cn1)C/C2=N\\O (stereo partly drawn) [Compound 8]")
90
>>> numeric_readout("C[C@]12CCC3c4ccc(Cl)cc4CCC3C1[C@H](CCC(=O)Nc1ncccc1F)C/C2=N\\O (stereo partly drawn) [Compound 62]")
45
>>> numeric_readout("C[C@]12CCC3c4ccccc4CCC3C1[C@H](CCC(=O)Nc1ncc(F)cc1F)C/C2=N\\O (stereo partly drawn) [Compound 166]")
56
>>> numeric_readout("C[C@]12CCC3c4ccccc4CCC3C1[C@H](CCC(=O)Nc1cccc(F)n1)C/C2=N\\O (stereo partly drawn) [Compound 168]")
26
>>> numeric_readout("C[C@]12CCC3c4ccc(Cl)cc4CCC3C1[C@H](CCC(=O)Nc1cccc(F)n1)C/C2=N\\O (stereo partly drawn) [Compound 170]")
34
>>> numeric_readout("CCN(CC)C(=O)CC[C@@H]1C/C(=N\\O)[C@@]2(C)CCC3c4ccc(F)cc4CCC3C12 (stereo partly drawn) [Compound 40]")
46
>>> numeric_readout("C[C@]12CCC3c4ccccc4CCC3C1[C@H](CCC(=O)Nc1cc(F)ccn1)C/C2=N\\O (stereo partly drawn) [Compound 158]")
36
>>> numeric_readout("CC(C)c1ccc(NC(=O)CC[C@@H]2C/C(=N\\O)[C@@]3(C)CCC4c5cccc(F)c5CCC4C23)nc1 (stereo partly drawn) [Compound 112]")
96
>>> numeric_readout("CC(C)c1ccc(NC(=O)CC[C@@H]2C/C(=N\\O)[C@@]3(C)CCC4c5ccc(F)cc5CCC4C23)nc1 (stereo partly drawn) [Compound 42]")
96
>>> numeric_readout("C[C@]12CCC3c4ccc(Cl)cc4CCC3C1[C@H](CCC(=O)Nc1ccccn1)C/C2=N\\O (stereo partly drawn) [Compound 68]")
67
